B1: HDAC6 (parent)
chain: DLMETTQYMNEGELRVLADTYDSV

variants of: B1; experiment: protein stability index of a GFP-peptide fusion (GPS, HEK-293T) (PSI 1-6); higher = more stable; conditions: c terminus: a fixed tail appended;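 also: lentivirally expressed fusions sorted by FACS into six bins by GFP to DsRed ratio, PSI derived from sequencing read proportions per bin multiplied by bin number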
# maps each entry to its protein stability index
Please reply with the number alone, leaving off any unit.

As a guide, the following entries are already answered.
T20K; 1.96
V24E; 2.01
M3A; 3.05
T20M; 1.62

query: So what does the record say about protein stability index for D1C ?
result: 2.48

query: Consider next the variant Y8E in the same way.
result: 4.21

query: Consider next the variant S23R in the same way.
result: 2.14
